Target under test: T1, human IL-17F (human, UniProt Q96PD4 31-163)
T1 construct: made in Hek293 cells (GenBank AF384857); also called hIL-17F; hIL17F
T1 sequence: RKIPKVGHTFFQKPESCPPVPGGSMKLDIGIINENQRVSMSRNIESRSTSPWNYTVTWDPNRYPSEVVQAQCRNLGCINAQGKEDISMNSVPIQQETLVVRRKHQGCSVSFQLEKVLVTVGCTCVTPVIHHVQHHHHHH
Method notes: SPR (Biacore) off-rate
Please go through the items and note down their koff.
Numbers only, in s⁻¹.

Example entries and their recorded answers appear below.
1) IL17MS3052 (VHH, variant of IL17MS13B03; Kabat numbering) VHH: EVQLVESGGGSVQAGDSLRLSCAASGRASSINWFGWFRQTPGKEREFVAGIRWSDAYTEYANSVKGRFTISRDNAKNTVDLQMDSLKPEDTAVYYCVLDLSTVRYWGQGTQVTVSS	0.00439
2) IL17MS3049 (VHH, variant of IL17MS13B03; Kabat numbering) VHH: EVQLVESGGGSVQPGDSLRLSCAASGRANSINWFGWFRQAPGKEREFVAGIRWSDAYTEYANSVKGRFTISRDNSKNTVYLQMDSLRPEDTAVYYCVLDLSTVRYWGQGTLVTVSS	0.00757
3) IL17MS3045 (VHH, variant of IL17MS13B03; Kabat numbering) VHH: EVQLVESGGGSVQPGDSLRLSCAASGRANSINWFGWFRQAPGKEREFVAGIRWSDAYTEYANSVKGRFTISRDNSKNTVDLQMDSLRPEDTAVYYCVLDLSTVRYWGQGTLVTVSS	0.00794

Please turn your attention to the following entry.
Prompt line: Requested read-out: koff. Entry: IL17MS3048 (VHH, variant of IL17MS13B03; Kabat numbering) VHH: EVQLVESGGGSVQPGDSLRLSCAASGRANSINWFGWFRQTPGKEREFVAGIRWSDAYTEYANSVKGRFTISRDNSKNTVDLQMNSLRPEDTAVYYCVLDLSTVRYWGQGTLVTVSS
Response line: 0.00874
